These entries and their values trace back to patent US20210380680A1.

So I've got a bunch of binders here, and I need their % ADCC @ 6.67 nM, NCI-N87-CLDN18.2, FcR-TANK values.
TARGET_ENTITY: human Claudin 18.2 (CLDN18.2) (human, UniProt P56856-2 1-261)
TEST_SUMMARY: cell-based or functional assay
Lab book: enter the figure in %, no units written.

Noted for reference antibody 175D10 (xi175D10) (antibody, human IgG1, kappa, V domains shown, Fc variant D356/L358; also called chimeric 175D10) VH: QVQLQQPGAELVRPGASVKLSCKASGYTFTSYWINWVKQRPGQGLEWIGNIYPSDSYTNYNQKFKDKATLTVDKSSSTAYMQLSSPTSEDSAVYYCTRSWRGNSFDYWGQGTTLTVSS VL: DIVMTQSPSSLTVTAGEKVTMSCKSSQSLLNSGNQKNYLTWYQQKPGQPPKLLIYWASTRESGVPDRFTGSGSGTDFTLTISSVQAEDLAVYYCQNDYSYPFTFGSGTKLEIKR : its % ADCC @ 6.67 nM, NCI-N87-CLDN18.2, FcR-TANK reads 11.9

Noted for 282A12F3 (T62A) (antibody, human IgG1, kappa, V domains shown, chimeric human IgG1, PTM site removed; also called 282A12F3-VH-NSA (T62A); 282A12 (T62A)) VH: QVQLKESGPVLVQPSQTLSLTCTVAGFSLTSYNVYWVRQPPGKGLEWMGVIWNTGATRYNSALKSRLSISKDTSKSQVFLKMNSLQTEDTATYYCARDSAMPAIPFAYWGQGTLVTVSS VL: DIVMTQSPSSLAVSAGETVTINCKSSQSLFGSVRQKNYLAWYQQKPGQSPKLLIYLASTRESGVPDRFIGSGSGTDFTLTISSVQAEDLAKYYCQQYYDIPWTFGGGTKLELKR : its % ADCC @ 6.67 nM, NCI-N87-CLDN18.2, FcR-TANK reads 14.6

Noted for 364D1A7-H3L1 (antibody, V domains shown, humanized IgG; constant regions not specified) VH: EVQLVESGGGLVQPGGSLRLSCAASGFTFSSFGMHWVRQAPGKGLEWVAYISSGSGSIYYADTVKGRFTLSRDNPKNSLYLQMNSLRAEDTAVYYCATSYYYGNALEYWGQGTTVTVSS VL: DIVMTQSPDSLAVSLGERATINCKSSQSLFNVGNQKNYLTWYQQKPGQPPKLLIYWASTRKSGVPDRFSGSGSGTDFTLTISSLQAEDVAVYYCQNVYSYPLTFGGGTKVEIK : its % ADCC @ 6.67 nM, NCI-N87-CLDN18.2, FcR-TANK reads 10.8

Noted for 357B8F8-VH-S61I-VL-S32I (antibody, human IgG1, kappa, V domains shown) VH: QVQLKESGPGLVAPSQSLSITCTVSGFSLTSYGVHWVRQPPGKGLEWLGVIWPGGNTNYNIALMSRLSISKDNSKSQVFLKMNSLQTDDTAMYYCARDRRLAMDYWGQGTSVTVSS VL: DIVMTQSPSSLTVTAGEKVTMTCKSSQSLLNIGNQKNYLTWYQQKPGQPPKLLIYWASTRESGVPDRFTGSGSGTDFTLTISILQAEDLAVYYCQNDYSYPFTFGSGTKLEIKR : its % ADCC @ 6.67 nM, NCI-N87-CLDN18.2, FcR-TANK reads 2.3
